Sourced from patent US20100311648A1

target: human melanocortin-4 receptor (human, UniProt P32245 1-332); assay: cell-based or functional assay
Sequence (P32245 whole entry): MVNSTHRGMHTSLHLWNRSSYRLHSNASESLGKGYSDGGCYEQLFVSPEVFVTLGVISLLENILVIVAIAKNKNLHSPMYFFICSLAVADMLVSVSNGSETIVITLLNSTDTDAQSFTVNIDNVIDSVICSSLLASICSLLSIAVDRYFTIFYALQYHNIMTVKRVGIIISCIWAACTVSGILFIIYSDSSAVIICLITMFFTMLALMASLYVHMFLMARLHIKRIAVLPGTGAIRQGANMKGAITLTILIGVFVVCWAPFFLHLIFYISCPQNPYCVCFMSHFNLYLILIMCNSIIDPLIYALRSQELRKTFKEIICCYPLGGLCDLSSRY
Positions of bridges follow the written chain, without caps; N, C: chain ends. Non-standard residues stand in square brackets, D forms with d. dPhe(3,4,5-F3) = N[C@H](Cc1cc(F)c(F)c(F)c1)C(=O)O; dPhe(2-Me) = Cc1ccccc1C[C@@H](N)C(=O)O; Orn = NCCC[C@H](N)C(=O)O
Readout: EC50, cAMP, 10 ng/mL Doxycycline (nM)

Ac-REQ[dPhe(3,4,5-F3)]RW[Orn]-NH2 (lactam 2-7; SMILES CC(=O)N[C@@H](CCCNC(=N)N)C(=O)N[C@H]1CCC(=O)NCCC[C@@H](C(N)=O)NC(=O)[C@H](Cc2c[nH]c3ccccc23)NC(=O)[C@H](CCCNC(=N)N)NC(=O)[C@@H](Cc2cc(F)c(F)c(F)c2)NC(=O)[C@H](CCC(N)=O)NC1=O) [Ac-Arg-cyclo(Glu-Gln-D-Phe(3,4,5-triF)-Arg-Trp-Orn)-NH2] :: 0.1

[I] Ac-R[Orn]Q[dPhe(2-Me)]RWE-NH2 (lactam 2-7) [Ac-Arg-cyclo(Orn-Gln-D-Phe(2-Me)-Arg-Trp-Glu)-NH2]
[II] RDPXRWK (N-terminal Ac; D-Phe(2-F) 4; lactam Asp 2-Lys 7; C-terminal NH2) [Ac-Arg-cyclo(Asp-Pro-D-Phe(2-F)-Arg-Trp-Lys)-NH2]
Exam item: Lab notebook, comparison: I versus II , higher EC50, cAMP, 10 ng/mL Doxycycline goes to which? Identify your selection by its label.
Marked response: II
